The origin of these recorded values is the supplement of paper PMC13380429.

System: Vero E6
Test: cell viability relative to DMSO; higher = less toxic
Details: 72 h; 1 nM
measurement-kind: cell viability

{"record-smiles": "CO[C@@H]1[C@H](O)[C@@H](CO)O[C@H]1n1cnc2c(NC3CCCCC3)ncnc21", "observed": "99.5%"}
{"record-smiles": "Cc1ccc(S(=O)(=O)OCC(=O)Nc2ccc(C(=O)O)c(O)c2)cc1", "observed": "98.3%"}
{"record-smiles": "CC(C)C[C@@H](N)C(=O)N[C@H]1C(=O)N[C@@H](CC(N)=O)C(=O)N[C@H]2C(=O)N[C@H]3C(=O)N[C@H](C(=O)N[C@H](C(=O)O)c4cc(O)cc(O)c4-c4cc3ccc4O)[C@H](O)c3ccc(c(Cl)c3)Oc3cc2cc(c3O[C@@H]2O[C@H](CO)[C@@H](O)[C@H](O)[C@H]2O[C@H]2C[C@](C)(N)[C@H](O)[C@H](C)O2)Oc2ccc(cc2Cl)[C@H]1O", "observed": "109%"}
